Tested on: SK-BR-3
Assay: SRB colorimetric cell growth inhibition assay, SK-BR-3
Format: cell-based
Conditions: SK-BR-3; total growth inhibition (cytostatic effect)
Reported TGI SK-BR-3 values for the following compounds.
Record the value in Molar, omitting the unit from your answer.

Known results for compounds:
compound	number
COc1cc2ccn3c(c(-c4ccc(OC(=O)[C@@H](N)Cc5ccccc5)c(OC)c4)c4c5cc(OC)c(OC(=O)[C@@H](N)Cc6ccccc6)cc5oc(=O)c43)c2cc1OC [Compound 18]	2.14E−06
COc1cc(-c2c3n(c4c(=O)oc5cc(OS(C)(=O)=O)c(OC)cc5c24)CCc2cc(OS(C)(=O)=O)c(OC)cc2-3)ccc1OS(C)(=O)=O	1.81E−06

--- query ---
The compound "COc1cc(-c2c3c4cc(OC)c(OC(=O)[C@H](C)N)cc4oc(=O)c3n3ccc4cc(O)c(OC)cc4c23)ccc1O.Cl" , when measured on SK-BR-3, yielded TGI SK-BR-3 of 3.43E−07

---

System: K-562
Experiment: SRB colorimetric cell growth inhibition assay, K-562
Assay type: cell-based
Details: Homo sapiens, K562, K-562; TGI=total growth inhibition (cytostatic effect); read-out: TGI K-562
Reported IC (TGI) values for the following molecules.
Record the value in µM, omitting the unit from your answer.

Known results for molecules:
structure string	tgt	IC (TGI) (µM)
COc1cc(-c2c3c4cc(OC)c(OC(=O)[C@@H](N)C(C)C)cc4oc(=O)c3n3ccc4c(OC(=O)[C@@H](N)C(C)C)c(OC)c(OC)cc4c23)ccc1OC(=O)[C@@H](N)C(C)C	K-562	0.975
COc1cc(-c2c3n(c4c(=O)oc5cc(OC(=O)[C@H](C)N)c(OC)cc5c24)CCc2cc(OC(=O)[C@H](C)N)c(OC)cc2-3)ccc1OC(=O)[C@H](C)N	K-562	1.79

--- query ---
The molecule "COc1cc(-c2c3n(c4c(=O)oc5cc(OC(=O)[C@H](CO)NC(=O)OC(C)(C)C)c(OC)cc5c24)CCc2c-3cc(OC)c(OC)c2OC(=O)[C@H](CO)NC(=O)OC(C)(C)C)ccc1OC(=O)[C@H](CO)NC(=O)OC(C)(C)C" , when measured on K-562, yielded IC (TGI) of 2.19

---

Test system: IGROV-ET
Assay: SRB colorimetric cell growth inhibition assay, IGROV-ET (ET-743 resistant)
Assay type: cell-based
Settings: Homo sapiens, IGROV-ET; GI=growth inhibition; read-out: GI50 IGROV-ET
yes (1) if GI50 is below 0.1 µM. no (0) if not; exact matches included in no (0).

Use these answered entries as a reference point.
structure string	class name
COc1cc(-c2c3c4cc(OC)c(OC(=O)[C@@H]5CCCN5)cc4oc(=O)c3n3ccc4cc(OC(=O)[C@@H]5CCCN5)c(OC)cc4c23)ccc1OC(=O)[C@@H]1CCCN1	yes (1)
COc1cc2c(cc1O)CCn1c-2cc2c3cc(OC)c(O)cc3oc(=O)c21	no (0)
COc1cc(-c2c3c4cc(OC)c(OC(=O)CCCCCN)cc4oc(=O)c3n3ccc4c(OC(=O)CCCCCN)c(OC)c(OC)cc4c23)ccc1OC(=O)CCCCCN	no (0)
COc1cc2c(cc1OC)-c1c(-c3ccc(OS(C)(=O)=O)c(OC)c3)c3c4cc(OC)c(OS(C)(=O)=O)cc4oc(=O)c3n1CC2	no (0)

Then there is this compound:
Check if GI50 falls below 0.1 µM for "COc1cc(-c2c3c4cc(OC)c(OC(=O)[C@@H](NC(=O)OC(C)(C)C)C(C)C)cc4oc(=O)c3n3ccc4cc(OC(=O)[C@@H](NC(=O)OC(C)(C)C)C(C)C)c(OC)cc4c23)ccc1OC(=O)[C@@H](NC(=O)OC(C)(C)C)C(C)C" .
no (0)
